# target-of-assay: interaction of GIT-1 with leupaxin (Homo sapiens, UniProt O60711)
# Sequence (O60711 1-386): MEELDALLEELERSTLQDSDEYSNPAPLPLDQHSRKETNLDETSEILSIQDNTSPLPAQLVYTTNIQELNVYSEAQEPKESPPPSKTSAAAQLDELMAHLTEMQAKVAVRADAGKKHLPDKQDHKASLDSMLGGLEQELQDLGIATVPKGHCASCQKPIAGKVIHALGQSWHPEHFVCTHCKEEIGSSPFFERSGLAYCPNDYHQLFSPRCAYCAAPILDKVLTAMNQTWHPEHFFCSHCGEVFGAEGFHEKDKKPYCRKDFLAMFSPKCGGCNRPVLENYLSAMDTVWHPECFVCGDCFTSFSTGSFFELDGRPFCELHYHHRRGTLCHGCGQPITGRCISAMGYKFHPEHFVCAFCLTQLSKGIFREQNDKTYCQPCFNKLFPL
# measurement-description: ELISA, leupaxin binding to immobilized Git-1
# run-parameters: read-out: IC50, inhibition of interaction of GIT-1 with leupaxin
readout-name: pIC50
Notebook: values listed as pIC50 are -log10 of the concentration (mol/L).

// query Which pIC50 value belongs to COc1cc(C2CC(=O)Nc3c2cc(Br)c2ccccc32)cc(OC)c1OC (stereo not shown) ?
// result 4.60

====

# target-of-assay: interaction of GIT-1 with paxillin (Homo sapiens, UniProt P49023)
# Sequence (P49023 whole entry): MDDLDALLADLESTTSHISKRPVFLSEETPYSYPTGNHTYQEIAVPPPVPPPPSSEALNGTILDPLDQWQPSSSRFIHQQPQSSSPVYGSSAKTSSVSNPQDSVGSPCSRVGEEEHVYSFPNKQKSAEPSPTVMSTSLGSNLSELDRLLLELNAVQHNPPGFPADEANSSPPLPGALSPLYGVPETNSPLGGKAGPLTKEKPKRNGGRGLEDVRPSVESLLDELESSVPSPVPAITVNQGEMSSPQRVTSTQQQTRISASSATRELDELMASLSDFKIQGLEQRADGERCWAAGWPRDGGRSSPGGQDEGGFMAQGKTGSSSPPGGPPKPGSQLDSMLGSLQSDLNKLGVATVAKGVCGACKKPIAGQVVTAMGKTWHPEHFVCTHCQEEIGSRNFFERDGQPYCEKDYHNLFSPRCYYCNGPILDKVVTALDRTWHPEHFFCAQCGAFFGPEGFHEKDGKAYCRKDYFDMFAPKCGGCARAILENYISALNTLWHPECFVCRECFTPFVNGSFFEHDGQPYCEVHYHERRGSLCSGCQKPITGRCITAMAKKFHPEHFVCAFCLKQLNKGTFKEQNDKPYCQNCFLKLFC
# measurement-description: ELISA, paxillin binding to immobilized Git-1
# run-parameters: read-out: IC50, inhibition of interaction of GIT-1 with paxillin
# Method: Thermo Electron High Binding 96 or 384 well plates were coated with 1 μg/ml neutravidin (Pierce) in 0.05M NaHCO3 pH 9.5 over night at 4° C. After blocking with 1% heat inactivated BSA in PBS for 1 hour at room temperature, plates were incubated with 1 μg/ml of recombinant αIIb-tail or α4-tail FAT or Git-1 in 1% BSA in PBS for one hour at room temperature. […]
readout-name: IC50

// query Which IC50 value belongs to COc1cc(C2CC(=O)Nc3c2cc(Br)c2ccccc32)cc(OC)c1OC (stereo not shown) [6-B345TTQ] ?
// result 2400 nM
